Tested on: Plasmodium falciparum
assay: Antiplasmodial activity against chloroquine-sensitive Plasmodium falciparum D10 by lactate dehydrogenase assay
Format: functional, organism-based
condition_summary: Plasmodium falciparum, D10
observation_type: IC50 (nM)
Numbers only here, please. The scale is nM.

What does the record list as IC50 for C[C@H]1[C@@H](OCCN2CCN(c3ccnc4cc(Cl)ccc34)CC2)O[C@@H]2O[C@@]3(C)CC[C@H]4[C@H](C)CC[C@@H]1[C@@]24OO3 ? 30.7

Query CC(CNc1ccnc2cc(Cl)ccc12)NCCO[C@H]1O[C@@H]2O[C@@]3(C)CC[C@H]4[C@H](C)CC[C@@H]([C@H]1C)[C@@]24OO3.O=C(O)C(=O)O (stereo partly drawn) next 14.9

C[C@H]1[C@@H](OCCNc2ccc(Nc3ccnc4cc(Cl)ccc34)cc2)O[C@@H]2O[C@@]3(C)CC[C@H]4[C@H](C)CC[C@@H]1[C@@]24OO3.O=C(O)C(=O)O , same question. 17.2
